Tested on: DU-145 prostate
Experiment: NCI tumour cell line growth inhibition, 48 h
Reported endpoint: TGI

>  <Compound>
Cc1nc2ccc(Br)cc2c(=O)n1-c1ccc(N)cc1

>  <Reported endpoint>
TGI

>  <Reported measurement>
> 100 µM

$$$$
>  <Compound>
CN(C)c1ccc(/C=c2/c3ccccc3n3c2cc(/C=C/c2ccccc2)[n+]3C)cc1

>  <Reported endpoint>
TGI

>  <Reported measurement>
1.37 µM

$$$$
>  <Compound>
COc1cc(C)cc(C(=O)/C=C/c2ccccc2)c1O

>  <Reported endpoint>
TGI

>  <Reported measurement>
29.4 µM

$$$$
>  <Compound>
CC(C)(C)OC(=O)C(C#N)C(=O)c1ccc(C(=O)O)[nH]1 (stereo unspecified)

>  <Reported endpoint>
TGI

>  <Reported measurement>
> 100 µM

$$$$
>  <Compound>
CC1CCCC(C#N)(NOC2=NCCN2)C1 (stereo unspecified)

>  <Reported endpoint>
TGI

>  <Reported measurement>
> 100 µM

$$$$
>  <Compound>
COc1ccc2c(c1O)[C@@]13CCCC=C1[C@@H](C2)[N+](C)(C)CC3

>  <Reported endpoint>
TGI

>  <Reported measurement>
> 100 µM

$$$$

FYI, the data here is from PubChem BioAssay (NCI).
